Exercise: state measured sensor-assay potency score (higher = more potent) for each of the sequences provided.
Target: IDI2; also: reference of the scale not given here
Assay: pooled miR-30 sensor sort-seq; sequence = guide strand
Conditions: shRNA
Output spec: single numeric token, no unit.

sensor-assay potency score (higher = more potent) reading for `TTATTTGTAAGCATATTACTGA` : 0.0641

Reported sensor-assay potency score (higher = more potent) for `TTTCTCAATGTTTTCGTTCAGA` was -0.492

Value of measured sensor-assay potency score (higher = more potent) for the entry `TTTCGTTTCACTGGGATCCGGG` : -0.0224

So, `ATTCTCATCCACAACAATCAGC` ? Its sensor-assay potency score (higher = more potent) was -0.745

Looking up `TAACCTTATCATTCTCATCCAC` , I found its sensor-assay potency score (higher = more potent) recorded as -0.207

Kindly note the recorded sensor-assay potency score (higher = more potent) for `TAGGATGCAAGATTGAATGTGT` , which is 0.9

For record `TTGTCATGAACACAATGTCCTC` the listed sensor-assay potency score (higher = more potent) is -1.35

Kindly note the recorded sensor-assay potency score (higher = more potent) for `TAAACGTCGAGTCACTTGGCTG` , which is -1.26
